Target or system: Ectonucleotide pyrophosphatase/phosphodiesterase family member 1 (Homo sapiens) (UniProt P22413)
Sequence (P22413 whole entry, the tested form may be a part): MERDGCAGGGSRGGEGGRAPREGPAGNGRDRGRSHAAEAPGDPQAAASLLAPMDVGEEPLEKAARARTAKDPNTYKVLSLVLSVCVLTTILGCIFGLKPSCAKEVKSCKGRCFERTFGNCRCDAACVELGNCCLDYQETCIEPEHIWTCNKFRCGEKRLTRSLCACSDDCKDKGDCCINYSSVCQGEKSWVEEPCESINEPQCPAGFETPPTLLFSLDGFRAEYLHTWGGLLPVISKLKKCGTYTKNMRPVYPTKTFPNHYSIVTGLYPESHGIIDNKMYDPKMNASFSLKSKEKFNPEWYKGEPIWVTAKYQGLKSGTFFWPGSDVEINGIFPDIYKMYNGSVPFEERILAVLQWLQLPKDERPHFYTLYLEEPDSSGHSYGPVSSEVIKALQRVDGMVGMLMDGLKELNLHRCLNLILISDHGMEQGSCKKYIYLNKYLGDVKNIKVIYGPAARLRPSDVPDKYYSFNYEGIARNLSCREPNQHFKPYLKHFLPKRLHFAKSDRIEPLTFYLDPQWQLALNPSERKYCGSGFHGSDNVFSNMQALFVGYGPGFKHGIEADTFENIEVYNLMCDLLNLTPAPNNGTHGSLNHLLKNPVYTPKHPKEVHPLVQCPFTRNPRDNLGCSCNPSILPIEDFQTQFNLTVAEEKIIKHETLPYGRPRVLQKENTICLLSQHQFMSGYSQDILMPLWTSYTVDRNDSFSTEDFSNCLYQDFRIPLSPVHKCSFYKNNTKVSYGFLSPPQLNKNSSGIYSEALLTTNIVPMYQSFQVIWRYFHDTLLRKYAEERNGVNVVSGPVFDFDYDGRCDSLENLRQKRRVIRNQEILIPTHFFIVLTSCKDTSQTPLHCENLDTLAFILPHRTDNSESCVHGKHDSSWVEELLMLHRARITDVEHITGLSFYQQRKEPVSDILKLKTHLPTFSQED
Test description: Inhibition of human GFP-fused NPP1 expressed in COS7 cells at 1 uM using pnp-TMP as substrate after 60 mins relative to control
Format: cell-based
Threshold check on inhibition: at or above 50% gives y, strictly below gives n.

Solved entries (count: 3):
| Smiles representation | Classification |
| --- | --- |
| COc1cc2ncnc(N3CCC(CO)CC3)c2cc1OC | n |
| COc1ccc2ncnc(N3CCC(CCNS(N)(=O)=O)CC3)c2c1 | y |
| COC(=O)c1ccc(/C=C/c2nc(N3CCC(CCNS(N)(=O)=O)CC3)c3cc(OC)c(OC)cc3n2)cc1 | n |

IN: Has "CCOc1cc2c(Cl)ncnc2cc1OC" a recorded inhibition greater than or equal to 50%?
OUT: n

IN: Has "COc1cc2nc(/C=C/c3ccc(F)cc3)nc(N3CCC(CCNS(N)(=O)=O)CC3)c2cc1OC" a recorded inhibition greater than or equal to 50%?
OUT: y

====

Target or system: Ectonucleotide pyrophosphatase/phosphodiesterase family member 1 (Homo sapiens) (UniProt P22413)
Test description: Inhibition of human GFP-fused NPP1 expressed in COS7 cells at 1 uM using pnp-TMP as substrate after 60 mins relative to control
Assay type: cell-based
Measured property: inhibition (%)
Kindly provide the numeric value in % only, without the unit symbol.

The cases that follow already have their inhibition on record.
| Smiles representation | Result unit | Recorded number |
| --- | --- | --- |
| COC(=O)c1cccc(/C=C/c2nc(N3CCC(CCNS(N)(=O)=O)CC3)c3cc(OC)c(OC)cc3n2)c1 | % | 74 |
| COc1cc2ncnc(N3CCC(CCNS(C)(=O)=O)CC3)c2cc1OC | % | 12 |

inhibition recorded for this compound, "COc1cc2nc(/C=C/c3ccccc3)nc(N3CCC(CCNS(N)(=O)=O)CC3)c2cc1OC" , is 33

inhibition recorded for this compound, "COc1ccc(/C=C/c2nc(N3CCC(CCNS(N)(=O)=O)CC3)c3cc(OC)c(OC)cc3n2)cc1" , is 66

Where these numbers come from: ChEMBL document CHEMBL4145537
